Collected HC50 values appear next to each entry.
Test: Toxicity in sheep erythrocytes assessed as induction of hemolysis
Type: cell-based, Ovis aries, Erythrocyte
Details: read-out: HD50 (the source's name)

The following compounds have reported results that may help.
Task: Given C=C(C)[C@@H]1CC[C@]2(CO)CC[C@]3(C)[C@H](CC[C@@H]4[C@@]5(C)CC[C@H](O[C@@H]6OC[C@H](O)[C@H](O)[C@H]6O)C(C)(C)[C@@H]5CC[C@]43C)[C@@H]12 , state its recorded HC50.
Result: > 100 µM

Task: Given C[C@@H]1O[C@@H](O[C@H]2[C@H](O[C@H]3CC[C@]4(C)[C@H]5CC=C6[C@@H]7CC(C)(C)CC[C@]7(C(=O)O)CC[C@@]6(C)[C@]5(C)CC[C@H]4C3(C)C)OC[C@H](O[C@@H]3O[C@H](CO)[C@@H](O)[C@H](O)[C@H]3O)[C@@H]2O)[C@H](O)[C@H](O)[C@H]1O [HEDERACOLCHISIDE A1] , state its recorded HC50.
Result: 1.7 µM

Task: Given C=C(C)[C@@H]1CC[C@]2(CO)CC[C@]3(C)[C@H](CC[C@@H]4[C@@]5(C)CC[C@H](O[C@H]6O[C@H](CO)[C@@H](O)[C@H](O)[C@@H]6O)C(C)(C)[C@@H]5CC[C@]43C)[C@@H]12 , state its recorded HC50.
Result: > 100 µM

# next compound below
Task: Given C=C(C)[C@@H]1CC[C@]2(CO)CC[C@]3(C)[C@H](CC[C@@H]4[C@@]5(C)CC[C@H](O[C@@H]6OC[C@H](O)[C@H](O)[C@H]6O[C@@H]6O[C@@H](C)[C@H](O)[C@@H](O)[C@H]6O)C(C)(C)[C@@H]5CC[C@]43C)[C@@H]12 , state its recorded HC50.
Result: > 100 µM

This collection of values is drawn from ChEMBL document CHEMBL1152749.
